Provenance of the data: ChEMBL document CHEMBL1201862

test: Luminescence Cell-Based Dose Confirmation HTS to Identify Inhibitors of Platelet Dense Granule Release. [Related pubchem assays: 1663 (Primary HTS), 1678 (Summary of Project)]; type: functional
The source made the active and inactive calls. Rule as the data show it: actives have a measured EC50 and inactives only a lower limit.
Parameter EC50: see the listing below.
experimental readout: EC50

[
  {
    "compound": "COc1ccc(CCNC(=O)C[S+]([O-])Cc2nc(-c3ccc(C)cc3)oc2C)cc1OC (centres undefined)",
    "experimental readout": "EC50",
    "test value": "> 112 µM (not active)"
  },
  {
    "compound": "Nc1ncnc2c1ncn2[C@@H]1O[C@H](CO)[C@@H](O)[C@H]1O [ADENOSINE]",
    "experimental readout": "EC50",
    "test value": "0.759 µM (active)"
  },
  {
    "compound": "CN(CC(=O)Nc1ccccc1Br)C(=O)C(Cc1ccccc1)NC(=O)c1ccccc1 (centres undefined)",
    "experimental readout": "EC50",
    "test value": "> 112 µM (not active)"
  },
  {
    "compound": "COCCNC(=O)CSc1nc(-c2ccc(OC)c(OC)c2)cc(C(F)(F)F)n1",
    "experimental readout": "EC50",
    "test value": "> 112 µM (not active)"
  }
]
